tested_target: Voltage-gated potassium channel subunit beta-2 (Rattus norvegicus)
assay_protocol: inhibitors of rat Kvbeta2 reductase activity – biochemical, NADPH fluorescence, primary screen (AID 622);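 further: slope of raw intensity against log time taken from 70 to 1610 s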
condition_summary: recombinant KvBeta, 4-cyanobenzaldehyde reduction, at 10 µM, stronger effect = higher value
# if value of fluorescence slope reaches -0.5, tag Criterion met; if it stays below, tag Criterion not met

Examples from the recorded data:
>>> group("Cn1c(=O)[nH]c(=O)c2c1nc(Br)n2CCCSc1nc2ccccc2o1")
"Criterion met"
>>> group("CCOC(=O)c1ccc(NC(=O)CSc2ncccn2)cc1")
"Criterion not met"
>>> group("COc1cc2c(cc1OC)CN(C(=O)CSc1nnc3scc(-c4ccccc4)n13)CC2")
"Criterion not met"
>>> group("COc1ccccc1C(=O)Nc1ccccc1C(=O)N1CCCC1")
"Criterion not met"

In: Confirm if fluorescence slope reported for the compound CC1Cc2ccccc2N1Cc1cc(=O)n2ccsc2n1 (configuration not stated) is -0.5 or above.
Out: Criterion not met

In: Item: COc1cccc(C2CC(c3ccccc3)n3ncnc3N2)c1 (configuration not stated)
Out: Criterion not met

----------
assay_protocol: endothelial E-selectin expression blockers – imaging, HUVEC, immunofluorescence, MLSMR starter and 10KST1 sets, primary screen (AID 487);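 further: signal is fraction of cell area covered by stained E-selectin grains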
condition_summary: HUVEC TNFalpha-induced E-selectin immunofluorescence imaging, at 2 µM; stronger effect = higher value
# if value of inhibition reaches -20%, tag 1 (yes); if it stays below, tag 0 (no)

>>> group("COC(=O)COc1ccc(C(=O)OC)cc1")
"0 (no)"
>>> group("O=C(CCSc1nnc(-c2ccncc2)o1)Nc1ccccc1")
"0 (no)"
>>> group("O=c1[nH]c2cc3c(cc2cc1C(c1nnnn1Cc1ccccc1)N1CCCc2ccccc21)OCO3 (stereo unspecified)")
"1 (yes)"
>>> group("Clc1c(CSc2nc3ccccc3o2)nc2sccn12")
"0 (no)"
>>> group("COC(=O)c1ccc(COC(=O)c2c(C)nn(Cc3ccccc3Cl)c2Cl)o1")
"1 (yes)"
>>> group("Cc1cc(C)cc(N2C(=O)C3C4C=CC(C4)C3C2=O)c1 (stereo unspecified)")
"1 (yes)"
>>> group("CSc1ncc(Cl)c(C(=O)Nc2ccc(S(=O)(=O)N3CCOCC3)cc2)n1")
"1 (yes)"
>>> group("CC1Oc2ccccc2N(CC(=O)NCc2cccs2)C1=O (stereo unspecified)")
"0 (no)"
>>> group("COc1ccccc1Nc1nc(N)nc(CSc2nccc(C)n2)n1")
"1 (yes)"

Please look at the following compound next.
In: Confirm if inhibition reported for the compound COc1ccc(OCCOC(=O)c2cccc(-n3cnnn3)c2)cc1 is -20% or above.
Out: 1 (yes)

----------
Give NADPH fluorescence slope for every item shown.
tested_target: Voltage-gated potassium channel subunit beta-2 (Rattus norvegicus) (UniProt P62483)
Sequence (P62483 whole entry, looked up): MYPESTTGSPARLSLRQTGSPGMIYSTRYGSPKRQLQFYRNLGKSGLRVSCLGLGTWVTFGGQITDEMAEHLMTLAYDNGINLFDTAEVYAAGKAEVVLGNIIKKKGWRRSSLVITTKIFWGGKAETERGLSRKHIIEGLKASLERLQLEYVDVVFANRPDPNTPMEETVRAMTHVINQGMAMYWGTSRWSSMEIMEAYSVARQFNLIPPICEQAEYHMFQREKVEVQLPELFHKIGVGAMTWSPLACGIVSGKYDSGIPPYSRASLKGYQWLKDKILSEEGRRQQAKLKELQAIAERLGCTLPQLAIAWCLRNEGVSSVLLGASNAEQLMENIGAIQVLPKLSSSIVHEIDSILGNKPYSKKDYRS
assay_protocol: enhancers of rat Kvbeta2 NADPH turnover – biochemical, NADPH fluorescence, primary screen (AID 623);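 further: fluorescence intensity change per second fitted from 20 to 320 s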
condition_summary: Recombinant KvBeta, NADPH fluorescence decrease slope, 10 min; at 10 µM; stronger effect = lower value
Answers are plain numbers.

>>> value_measured("Cc1ccc(-n2nnnc2SCC(=O)N2CCN(C(=O)c3ccco3)CC2)c(C)c1")
"-5.4e-05"
>>> value_measured("Cc1ccc(S(=O)(=O)N2CCN(C(=O)N3CCOCC3)C2C)cc1 (stereo unspecified)")
"-5.1e-05"
>>> value_measured("CC(CC(=O)NCc1ccccc1)C1CCCO1 (stereo unspecified)")
"-3.8e-06"

Return reported NADPH fluorescence slope values for all items listed beneath this line.
1. O=c1[nH]c2cc3c(cc2cc1C(c1nnnn1C1CCCCC1)N1CCSCC1)OCCO3 (stereo unspecified)
2. CCOC(=O)N1CCC(NC(=O)Cn2cc3c(n2)CCC(C)C3)CC1 (stereo unspecified)
3. CN1CC=C2C(C#N)=C(N)C(C#N)(C#N)C(c3cccc(Cl)c3Cl)C2C1 (stereo unspecified)

Out:
1: -3.2e-05; 2: 1.7e-05; 3: -0.000109

----------
Give cell count for every item shown.
assay_protocol: inhibitors of TNFa-induced NFkB p65 translocation, primary screen, imaging, HUVEC, MLSMR starter and 10KST1 sets (AID 438);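 further: compound added about 3h40 before a 20 min TNFalpha stimulation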
condition_summary: HUVEC TNFa-induced p65 nuclear translocation; measured here: nuclei count (cytotoxicity indicator), at 2.08 µM

These recorded examples may help you get a feel for the data.
>>> value_measured("Cc1sc2ncnc(Oc3ccc(-n4ccnc4)cc3)c2c1C")
377
>>> value_measured("Nc1nonc1C(=O)NCCNCc1cc(Br)ccc1OCc1ccccc1F")
422

Return reported cell count values for all items listed beneath this line.
1. CC(C)(C)n1ncc2c(=O)n(CC(=O)c3ccccc3)cnc21
2. NC1=NC(c2ccc(Br)cc2)n2c(nc3ccccc32)N1 (stereo not drawn)
3. Cc1nc2c(=O)oc3ccccc3c2n1-c1ccccc1
4. Cn1c(-c2ccccc2)cnc1SCc1nc2ccccc2c(=O)[nH]1
5. CCN(CC)c1nc2cc(OC)ccc2cc1C#N
6. O=C(NCCCN1CCOCC1)c1cc(-c2ccc(Cl)cc2)on1
7. FC(F)(F)c1ccc(Sc2nnc(-c3cccs3)n2CC2CCCO2)nc1 (stereo not drawn)

Out:
1: 473; 2: 779; 3: 579; 4: 428; 5: 386; 6: 264; 7: 357

Return reported cell count values for all items listed beneath this line.
1. CC(C)(C)c1cc(NC(=O)c2cc(F)c(F)c(F)c2F)no1
2. CCC1c2ccc(C)n2CCN1C(=O)Nc1ccccc1OC (stereo not drawn)
3. CCC(C)NC(=O)c1cc(-c2ccc(OC)cc2)on1 (stereo not drawn)

Out:
1: 405; 2: 551; 3: 689

Return reported cell count values for all items listed beneath this line.
1. O=C(Cn1c(=O)n(Cc2ccc3c(c2)OCO3)c(=O)c2ccccc21)N1CCCc2ccccc21
2. C=CCn1c(COc2cccc(C)c2)nnc1SCC(=O)NC(=O)NCc1ccco1
3. COC(=O)C1=C(N)Oc2cc(C)n(Cc3ccncc3)c(=O)c2C1c1cccnc1 (stereo not drawn)
4. CCOC(=O)N1CCN(Cc2ccccc2F)CC1
5. CC(=O)N(c1ccc(Br)cc1)C1C=CS(=O)(=O)C1 (stereo not drawn)
6. O=C(c1csc2ccccc12)N1CCCCCC1

Out:
1: 680; 2: 365; 3: 594; 4: 485; 5: 476; 6: 359

Return reported cell count values for all items listed beneath this line.
1. Cc1ccccc1Cn1c(=O)c2c(nc3n2CCCN3Cc2ccccc2)n(C)c1=O
2. CCC(=O)c1ccc(OCC(O)CN2CCN(S(=O)(=O)N3CCCCC3)CC2)cc1 (stereo not drawn)

Out:
1. 348
2. 450

----------
tested_target: Voltage-gated potassium channel subunit beta-2 (Rattus norvegicus)
assay_protocol: enhancers of rat Kvbeta2 NADPH turnover – biochemical, NADPH fluorescence, primary screen (AID 623);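 further: fluorescence intensity change per second fitted from 20 to 320 s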
condition_summary: Recombinant KvBeta, NADPH fluorescence decrease slope, 10 min; at 10 µM; stronger effect = lower value
endpoint: NADPH fluorescence slope
Answers are plain numbers.

These recorded examples may help you get a feel for the data.
>>> value_measured("CCOc1nc(NCCC2=CCCCC2)nc(N2CCOCC2)n1")
"-5.8e-05"
>>> value_measured("CCOC(=O)C1CCCN(C(=O)c2cc3c(C)nc4ccccc4c3o2)C1 (stereo not drawn)")
0.000185
>>> value_measured("O=C(NCc1ccco1)c1cccc(-c2nnc(-c3ccccc3)o2)c1")
"-6.2e-05"

Return reported NADPH fluorescence slope values for all items listed beneath this line.
1. Cc1cc(C)c(C(=O)Nc2ccc(S(=O)(=O)Nc3onc(C)c3C)cc2)c(C)c1
2. CCOc1ccc2oc(-c3ccccc3)c(C(=O)N3CCN(CCO)CC3)c2c1

Out:
1. -2.1e-05
2. 1.9e-05

----------
tested_target: Voltage-gated potassium channel subunit beta-2 (Rattus norvegicus) (UniProt P62483)
assay_protocol: inhibitors of rat Kvbeta2 reductase activity – biochemical, NADPH fluorescence, primary screen (AID 622);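 further: slope of raw intensity against log time taken from 70 to 1610 s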
condition_summary: recombinant KvBeta, 4-cyanobenzaldehyde reduction, at 10 µM, stronger effect = higher value
endpoint: fluorescence slope
One number for each entry.

Return reported fluorescence slope values for all items listed beneath this line.
1. COc1ccc(C(=O)NCc2nc3ccccc3[nH]2)cc1OC
2. Clc1ccc(OCc2nnc(SCCN3CCCCC3)n2Cc2ccco2)cc1
3. O=C(NCc1cccnc1)c1cccc(C(F)(F)F)c1
4. Cc1nnc(NC(=O)C2CCCO2)s1 (stereo unspecified)
5. CCOC(=O)c1c(N)c(C#N)nn1-c1ccccc1C(=O)OC
6. COc1ccccc1NC(=O)NC1(C(=O)N2CCC(O)CC2)CCCCC1

Out:
[-0.582, -0.28, -0.452, -0.467, -0.364, -0.605]

----------
assay_protocol: blockers of RIG-like receptor reporter activation – cell-based, Sendai virus stimulus, luciferase, 10K MLSCN set, TLR/RLR signaling modifier project, primary screen (AID 602276);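 further: firefly luciferase from ISG56 promoter only with Renilla not read in this screen; 0% = Sendai virus plus DMSO and 100% = medium plus DMSO without virus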
condition_summary: HEK293 RL24 IRF3 luciferase reporter, at 10 µM, stronger effect = higher value
endpoint: inhibition (%)
Numbers only, in %.

>>> value_measured("O=C(Nc1ccc2[nH]c3c(c2c1)CCCC3)c1ccco1")
-30.4
>>> value_measured("CCCCCn1c(CN(C)Cc2ccccc2)nc2c1c(=O)n(C)c(=O)n2C")
18.2
>>> value_measured("Cc1csc(NC(=O)c2ccccc2C(=O)O)n1")
5.94
>>> value_measured("CC1CN(C(=O)CSc2ncnc3sccc23)CC(C)O1 (stereo unspecified)")
10.7
>>> value_measured("COC(=O)c1sc(N)c(C(=O)OC)c1COC(=O)C1CC(=O)N(Cc2ccco2)C1 (stereo unspecified)")
15.8

Shift focus to the following entry.
In: # lookup: inhibition of Cc1nc2ccccc2n1CCC(=O)Nc1cccc(F)c1
Out: 16.2
